# Tested on: human platelets in platelet-rich plasma (PRP)
# Test Details: In vitro platelet aggregation in PRP of healthy human volunteers
# Type: cell-based
# Study Conditions: read-out: RUC-4 IC50; 20 µM TRAP, blood anticoagulated with sodium citrate (0.38%), n = 4
Readout Kind: IC50 (nM)
The figure you give is taken to be in nM; do not add the unit.

Entry under review: NCC(=O)Nc1cncc(-c2nn3c(=O)cc(N4CCNCC4)nc3s2)c1 . Reported IC50?
66

###

# System: human platelets in platelet-rich plasma (PRP)
# Test Details: In vitro platelet aggregation in PRP of healthy human volunteers
# Type: cell-based
# Study Conditions: read-out: RUC-4 IC50; arachidonic acid (1.5 mM), vehicle, patient 3
Readout Kind: IC50 (nM)
The figure you give is taken to be in nM; do not add the unit.

Entry under review: NCC(=O)Nc1cncc(-c2nn3c(=O)cc(N4CCNCC4)nc3s2)c1 . Reported IC50?
41

###

# System: human platelets in platelet-rich plasma (PRP)
# Test Details: In vitro platelet aggregation in PRP of healthy human volunteers
# Type: cell-based
# Study Conditions: read-out: RUC-4 IC50; ADP (5 µM), aspirin (0.83 mM), mean of 5 patients
Readout Kind: pIC50
Formally, pIC50 is defined as -log10 of the concentration c, with c in mol/L.

Entry under review: NCC(=O)Nc1cncc(-c2nn3c(=O)cc(N4CCNCC4)nc3s2)c1 . Reported pIC50?
7.43

###

# System: human platelets in platelet-rich plasma (PRP)
# Test Details: In vitro platelet aggregation in PRP of healthy human volunteers
# Type: cell-based
# Study Conditions: read-out: RUC-4 IC50; arachidonic acid (1.5 mM), vehicle, patient 4
Readout Kind: IC50 (nM)
The figure you give is taken to be in nM; do not add the unit.

Entry under review: NCC(=O)Nc1cncc(-c2nn3c(=O)cc(N4CCNCC4)nc3s2)c1 . Reported IC50?
72

###

# Tested on: human platelets in platelet-rich plasma (PRP)
# Test Details: In vitro platelet aggregation in PRP of healthy human volunteers
# Format: cell-based
# Study Conditions: read-out: RUC-4 IC50; ADP (5 µM), aspirin (0.83 mM), patient 4
Readout Kind: IC50 (nM)
The figure you give is taken to be in nM; do not add the unit.

human platelets in platelet-rich plasma (PRP) / IC50 / NCC(=O)Nc1cncc(-c2nn3c(=O)cc(N4CCNCC4)nc3s2)c1 : value?
43
